All figures here come from patent US20140112915A1.

Biological target: T1, Native human IL-18 (human, UniProt Q14116 37-193)
T1 sequence: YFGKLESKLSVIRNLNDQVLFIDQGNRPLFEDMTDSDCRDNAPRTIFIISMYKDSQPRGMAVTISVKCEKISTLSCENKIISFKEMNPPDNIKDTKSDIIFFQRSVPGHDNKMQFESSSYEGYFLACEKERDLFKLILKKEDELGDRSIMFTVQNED
Assay: cell-based or functional assay
experimental-endpoint: IC50, inhibition of IFN-γ release, human whole blood, LPS/IL-12 (native IL-18) (nM)

binder="Recombinant human IL-18 Binding Protein-IgG1 Fc (Fc fusion, UniProt O95998 31-194, looked up, not shown: a dimerising Fc or GST) TPVSQTTTAATASVRSTKDPCPSQPPVFPAAKQCPALEVTWPEVEVPLNGTLSLSCVACSRFPNFSILYWLGNGSFIEHLPGRLWEGSTSRERGSTGTQLCKALVLEQLTPALHSTNFSCVLVDPEQVVQRHVVLAQLWAGLRATLPPTQEALPSSHSSPQQQG" val=12.1
binder="MOR10222_E1Q_N30S_M54I (antibody, human IgG1, lambda, L234A L235A, V domains shown) VH: QVQLVQSGAEVKKPGSSVKVSCKASGGTFSSYAISWVRQAPGQGLEWMGNIIPITGQTYYAQKFQGRVTITADESTSTAYMELSSLRSEDTAVYYCARAAYHPLVFDNWGQGTLVTVSS VL: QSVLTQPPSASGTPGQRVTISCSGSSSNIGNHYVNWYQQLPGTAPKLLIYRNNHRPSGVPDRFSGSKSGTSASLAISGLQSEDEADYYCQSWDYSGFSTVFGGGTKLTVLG" val=9.3
